measured_target: anti-ras lead zinc finger peptide (3 fingers) (Artificial Sequence)
Sequence (chain, as listed by the source): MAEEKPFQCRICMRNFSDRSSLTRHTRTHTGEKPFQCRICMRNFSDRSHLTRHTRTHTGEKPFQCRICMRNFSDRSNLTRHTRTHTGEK
test_summary: apparent Kd; phage binding
stated_conditions: protein: virion; label: biotin
observable: pKd
Schema: pKd number; meaning minus log10 of the concentration expressed in molar units.

Prompt: Quick check: pKd of EJ mutant (G12V) H-ras DNA, codons 8-16 (dsDNA) DNA 1: GTGGTGGGCGCCGTCGGTGTGGGCAAG DNA 2: CTTGCCCACACCGACGGCGCCCACCAC ?
Completion: 7.77
